target: DSTYK (human) (UniProt Q6XUX3); experiment: radiometric filter-binding kinase assay, Kinase HotSpot; conditions: compound 0.5 µM; ATP 10 µM
Sequence (Q6XUX3 whole entry, looked up): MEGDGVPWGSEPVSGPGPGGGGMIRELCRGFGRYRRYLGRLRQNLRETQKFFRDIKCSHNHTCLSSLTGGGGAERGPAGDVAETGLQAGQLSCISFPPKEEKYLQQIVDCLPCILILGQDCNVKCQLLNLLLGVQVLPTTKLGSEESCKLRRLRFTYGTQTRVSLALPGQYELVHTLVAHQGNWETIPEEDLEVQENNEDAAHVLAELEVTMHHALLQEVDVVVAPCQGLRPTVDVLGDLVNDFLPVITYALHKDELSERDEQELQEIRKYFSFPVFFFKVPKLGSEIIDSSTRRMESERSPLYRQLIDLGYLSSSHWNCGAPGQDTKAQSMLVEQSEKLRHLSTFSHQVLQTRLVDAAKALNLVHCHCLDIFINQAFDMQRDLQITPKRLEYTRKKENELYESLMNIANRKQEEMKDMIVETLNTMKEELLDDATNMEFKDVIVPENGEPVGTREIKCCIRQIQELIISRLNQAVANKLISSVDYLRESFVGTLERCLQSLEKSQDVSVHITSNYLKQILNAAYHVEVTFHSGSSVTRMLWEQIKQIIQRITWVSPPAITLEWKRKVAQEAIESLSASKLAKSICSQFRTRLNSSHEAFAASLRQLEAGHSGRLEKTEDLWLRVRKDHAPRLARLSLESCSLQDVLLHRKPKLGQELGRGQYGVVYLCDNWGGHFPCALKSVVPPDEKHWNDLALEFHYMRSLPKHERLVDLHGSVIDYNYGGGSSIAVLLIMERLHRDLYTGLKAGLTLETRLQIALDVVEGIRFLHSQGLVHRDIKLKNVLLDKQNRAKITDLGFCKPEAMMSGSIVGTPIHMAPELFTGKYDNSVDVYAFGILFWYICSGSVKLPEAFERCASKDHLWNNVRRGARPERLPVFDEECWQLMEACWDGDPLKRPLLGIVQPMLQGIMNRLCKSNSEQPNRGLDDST
REPORTED PROPERTY: residual activity (%)
// units = %; emit number, no label

TEST SMILES | SYSTEM NAME | UNIT SYMBOL | residual activity
Ic1cccc(CSc2nnc(-c3ccncc3)o2)c1 | DSTYK (human) (UniProt Q6XUX3) | % | 94.8
C[C@@H]1CCN(C(=O)CC#N)C[C@@H]1N(C)c1ncnc2[nH]ccc12 | DSTYK (human) (UniProt Q6XUX3) | % | 98.4
COc1ccc2c(c1)c(C1=C(c3c[nH]c4ccccc34)C(=O)NC1=O)cn2CCCN(C)C | DSTYK (human) (UniProt Q6XUX3) | % | 82.8

Entry `CN(C)CCCn1cc(C2=C(c3c[nH]c4ccccc34)C(=O)NC2=O)c2ccccc21` ; residual activity = 95

Entry `O=C1NC(=O)c2c1c1c3ccccc3[nH]c1n1cncc21` ; residual activity = 106

Entry `c1ccc2c(-c3ccncc3)c[nH]c2c1` ; residual activity = 95.9
